Target chain: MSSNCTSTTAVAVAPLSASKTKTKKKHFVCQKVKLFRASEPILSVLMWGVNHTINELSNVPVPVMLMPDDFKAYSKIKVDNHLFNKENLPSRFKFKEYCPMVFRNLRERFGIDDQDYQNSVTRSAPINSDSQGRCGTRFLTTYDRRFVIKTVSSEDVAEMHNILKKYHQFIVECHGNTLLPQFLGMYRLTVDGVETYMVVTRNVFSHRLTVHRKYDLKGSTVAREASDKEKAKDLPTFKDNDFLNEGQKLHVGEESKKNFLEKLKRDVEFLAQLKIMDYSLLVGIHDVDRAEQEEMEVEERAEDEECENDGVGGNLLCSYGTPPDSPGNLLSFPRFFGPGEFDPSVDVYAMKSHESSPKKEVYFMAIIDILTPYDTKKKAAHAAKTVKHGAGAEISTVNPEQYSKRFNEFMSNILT
parameter: IC50

[
  {
    "smilesCode": "CNC(=O)c1cc2c(-c3cncc(-c4ccc(N5CCCC5=O)cc4)c3C)ccnc2o1",
    "experimentalResult": "0.1 to 1 µM"
  }
]

Moving on to another molecule below.
Q: Query: IC50; subject: `O=C(NCc1ccccc1)c1cc2c(-c3cncc(-c4ccc(N5CCCC5=O)cc4)c3)ccnc2[nH]1`
Result: 0.01 to 0.1 µM

* * *

Sequence of the target: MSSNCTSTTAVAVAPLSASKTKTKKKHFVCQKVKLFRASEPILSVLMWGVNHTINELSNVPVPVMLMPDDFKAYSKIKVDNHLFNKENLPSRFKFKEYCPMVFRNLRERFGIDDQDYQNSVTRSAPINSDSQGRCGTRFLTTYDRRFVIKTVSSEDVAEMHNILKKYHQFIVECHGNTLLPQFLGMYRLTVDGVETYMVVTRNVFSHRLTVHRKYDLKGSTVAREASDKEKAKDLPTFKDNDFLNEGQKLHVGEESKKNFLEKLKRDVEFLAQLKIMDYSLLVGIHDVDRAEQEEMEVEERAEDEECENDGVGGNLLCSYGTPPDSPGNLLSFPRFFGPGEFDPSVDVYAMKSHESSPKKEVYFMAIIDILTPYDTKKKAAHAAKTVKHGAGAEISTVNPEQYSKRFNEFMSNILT
pIC50: −log10 of the molar value.
parameter: pIC50

These recorded examples may help you get a feel for the data.
[
  {
    "molecule": "Nc1ncc(-c2cnc3ncc(-c4cncc(-c5ccc(N6CCCC6=O)cc5)c4)cn23)cn1 [Example 334]",
    "pIC50": "6.00 to 7.00"
  },
  {
    "molecule": "CNC(=O)c1cc2c(-c3cncc(-c4ccc(C(=O)N(C)C)cc4)c3)ccnc2n1C [Example 13]",
    "pIC50": "5.60 to 6.00"
  },
  {
    "molecule": "Cc1ncc(-c2ccncc2)cc1-c1ccc(N2CCCC2=O)cc1 [Example 164]",
    "pIC50": "5.30 to 5.60"
  },
  {
    "molecule": "CN(C)C(=O)c1ccc(-c2cc(-c3ccnc4nc[nH]c34)cnc2N)nc1 [Example 213]",
    "pIC50": "5.60 to 6.00"
  },
  {
    "molecule": "Cc1c(-c2ccc(N3CCCC3=O)cc2)cncc1-c1cn(C)c2ncc([C@@H](C)O)cc12 (single isomer, unassigned) [196(R)]",
    "pIC50": "6.00 to 7.00"
  }
]

Q: Value lookup for pIC50; key = Cn1cc(-c2cncc(-c3ccc(N4CCCC4=O)cc3)c2)c2cc(N3CCNCC3)cnc21 [Example 56]
Result: 5.30 to 5.60

Q: Give the measured pIC50 of CC(C)c1cnnn1-c1ccc(-c2cncc(-c3ccnc4c3cc3n4CCN(C)C3=O)c2)cc1 [Example 368] .
Result: 8.00 to 9.00

Q: pIC50 for CN1CCn2c(cc3c(-c4cncc(-c5ccc(N6CCCS6(=O)=O)cc5)c4)ccnc32)C1=O [Example 386] ?
Result: 6.00 to 7.00

These entries and their values trace back to patent US11919902B2.
